# reported Reduced relative colony forming efficiency, T24 (% inhibition of colony forming ability); entries follow
- Tested on: T24 bladder cell carcinoma
- PROTOCOL: Relative colony forming efficiency (Example 17, Table 13)
- Assay type: cell-based, human
- MEASUREMENT PARAMETERS: averages of 2-8 determinations
Oligonucleotides are written 5' to 3', each unit as a sugar letter and its base; * is a phosphorothioate linkage, no mark a phosphodiester; rarer units and linkages stand in square brackets, end groups in braces. Plain capitals give the bases only. d = 2'-deoxy (DNA)
REPORTED METRIC: Reduced relative colony forming efficiency, T24 (% inhibition of colony forming ability) (%)

>  <SUBSTANCE>
GGGCACATCTTCAGTTCATT (antisense dG*dG*dG*dC*dA*dC*dA*dT*dC*dT*dT*dC*dA*dG*dT*dT*dC*dA*dT*dT) [AS-II-1364-20]

>  <MEASUREMENT UNITS>
%

>  <TEST VALUE>
66.59

$$$$
>  <SUBSTANCE>
TCAGCATCCAAGGTAAAAGA (antisense dT*dC*dA*dG*dC*dA*dT*dC*dC*dA*dA*dG*dG*dT*dA*dA*dA*dA*dG*dA) [AS-II-1338-20]

>  <MEASUREMENT UNITS>
%

>  <TEST VALUE>
63.16

$$$$
>  <SUBSTANCE>
TCGCCTACTCTCTTCTCAAA (antisense dT*dC*dG*dC*dC*dT*dA*dC*dT*dC*dT*dC*dT*dT*dC*dT*dC*dA*dA*dA) [AS-II-1278-20]

>  <MEASUREMENT UNITS>
%

>  <TEST VALUE>
65.42

$$$$
>  <SUBSTANCE>
AS-II-218220 (antisense dC*dG*dT*dT*dG*dA*dG*dG*dA*dA*dA*dA*dT*dA*dC*dA*dG*dT*dG*dA)

>  <MEASUREMENT UNITS>
%

>  <TEST VALUE>
67.76

$$$$
>  <SUBSTANCE>
GGCTAAATCGCTCCACCAAG (chemistry not given here) [SEQ ID NO: 1, antisense oligonucleotide that hybridizes to the coding region of human ribonucleotide reductase R2 mRNA]

>  <MEASUREMENT UNITS>
%

>  <TEST VALUE>
76.79

$$$$

###

- Tested on: T24 bladder cell carcinoma
- PROTOCOL: Relative colony forming efficiency (Example 17, Table 13)
- Format: cell-based, human
- MEASUREMENT PARAMETERS: averages of 2-8 determinations
- Procedure: Colony forming efficiency was determined using standard protocols. […] The test oligonucleotides were added to cell cultures in the presence of 2.5 μg of DOTMA/DOPE (Lipofectin; Life Technologies, Inc.) for four hours. The oligonucleotide was tested at 0.2 μM unless otherwise indicated. […] Surviving cells were visualized by methylene blue staining, and colonies were scored. In some experiments cell aliquots were removed from the culture and viability was determined using the trypan blue exclusion test. […]
Oligonucleotides are written 5' to 3', each unit as a sugar letter and its base; * is a phosphorothioate linkage, no mark a phosphodiester; rarer units and linkages stand in square brackets, end groups in braces. Plain capitals give the bases only. d = 2'-deoxy (DNA)
Would you please tag the item T when its Reduced relative colony forming efficiency, T24 (% inhibition of colony forming ability) is 60% or above, and F when it is below?

>  <SEQUENCE CHAIN>
TCTGCCTTCTTCTTGACACA (antisense dT*dC*dT*dG*dC*dC*dT*dT*dC*dT*dT*dC*dT*dT*dG*dA*dC*dA*dC*dA) [AS-II-798-20]

>  <ASSIGNED LABEL>
T

$$$$
>  <SEQUENCE CHAIN>
GACACAAGGCATCGTTTCAA (antisense dG*dA*dC*dA*dC*dA*dA*dG*dG*dC*dA*dT*dC*dG*dT*dT*dT*dC*dA*dA) [AS-II-784-20]

>  <ASSIGNED LABEL>
T

$$$$
>  <SEQUENCE CHAIN>
CGGCGGCGTGTT (antisense dC*dG*dG*dC*dG*dG*dC*dG*dT*dG*dT*dT) [AS-II-288-12]

>  <ASSIGNED LABEL>
F

$$$$
>  <SEQUENCE CHAIN>
GCCACAGGATAAAAACACAA (antisense dG*dC*dC*dA*dC*dA*dG*dG*dA*dT*dA*dA*dA*dA*dA*dC*dA*dC*dA*dA) [AS-II-2009-20]

>  <ASSIGNED LABEL>
T

$$$$
>  <SEQUENCE CHAIN>
GCAAAGAAAGCCAGAACATG (antisense dG*dC*dA*dA*dA*dG*dA*dA*dA*dG*dC*dC*dA*dG*dA*dA*dC*dA*dT*dG) [AS-II-579-20]

>  <ASSIGNED LABEL>
T

$$$$
>  <SEQUENCE CHAIN>
TTCTCTTACTCTCTCCTCCG (antisense dT*dT*dC*dT*dC*dT*dT*dA*dC*dT*dC*dT*dC*dT*dC*dC*dT*dC*dC*dG) [AS-II-1048-20]

>  <ASSIGNED LABEL>
F

$$$$
>  <SEQUENCE CHAIN>
CCCAGTTCCAGCATAAGTCT (antisense dC*dC*dC*dA*dG*dT*dT*dC*dC*dA*dG*dC*dA*dT*dA*dA*dG*dT*dC*dT) [AS-II-1182-20]

>  <ASSIGNED LABEL>
T

$$$$
>  <SEQUENCE CHAIN>
AGCTGCTGCGGGTCCGTGAT (antisense dA*dG*dC*dT*dG*dC*dT*dG*dC*dG*dG*dG*dT*dC*dC*dG*dT*dG*dA*dT) [AS-II-225-20]

>  <ASSIGNED LABEL>
T

$$$$
>  <SEQUENCE CHAIN>
CGGAGGGAGAGCATAGTGGA (antisense dC*dG*dG*dA*dG*dG*dG*dA*dG*dA*dG*dC*dA*dT*dA*dG*dT*dG*dG*dA) [AS-II-189-20]

>  <ASSIGNED LABEL>
F

$$$$
>  <SEQUENCE CHAIN>
TTCTGGCAAAAGGTGATACT (antisense dT*dT*dC*dT*dG*dG*dC*dA*dA*dA*dA*dG*dG*dT*dG*dA*dT*dA*dC*dT) [AS-II-1538-20]

>  <ASSIGNED LABEL>
T

$$$$
>  <SEQUENCE CHAIN>
TTTTAACTGGCTGTGCTGGT (antisense dT*dT*dT*dT*dA*dA*dC*dT*dG*dG*dC*dT*dG*dT*dG*dC*dT*dG*dG*dT) [AS-II-1666-20]

>  <ASSIGNED LABEL>
T

$$$$

Recorded values, source patent US20080311126A1.
